Data provenance is the supplement of paper PMC3545927.

- Test System: furin, P09958;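 note: purified furin at 1:10 enzyme:substrate in 50 mM HEPES pH 7.5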
- Sequence (P09958 whole entry): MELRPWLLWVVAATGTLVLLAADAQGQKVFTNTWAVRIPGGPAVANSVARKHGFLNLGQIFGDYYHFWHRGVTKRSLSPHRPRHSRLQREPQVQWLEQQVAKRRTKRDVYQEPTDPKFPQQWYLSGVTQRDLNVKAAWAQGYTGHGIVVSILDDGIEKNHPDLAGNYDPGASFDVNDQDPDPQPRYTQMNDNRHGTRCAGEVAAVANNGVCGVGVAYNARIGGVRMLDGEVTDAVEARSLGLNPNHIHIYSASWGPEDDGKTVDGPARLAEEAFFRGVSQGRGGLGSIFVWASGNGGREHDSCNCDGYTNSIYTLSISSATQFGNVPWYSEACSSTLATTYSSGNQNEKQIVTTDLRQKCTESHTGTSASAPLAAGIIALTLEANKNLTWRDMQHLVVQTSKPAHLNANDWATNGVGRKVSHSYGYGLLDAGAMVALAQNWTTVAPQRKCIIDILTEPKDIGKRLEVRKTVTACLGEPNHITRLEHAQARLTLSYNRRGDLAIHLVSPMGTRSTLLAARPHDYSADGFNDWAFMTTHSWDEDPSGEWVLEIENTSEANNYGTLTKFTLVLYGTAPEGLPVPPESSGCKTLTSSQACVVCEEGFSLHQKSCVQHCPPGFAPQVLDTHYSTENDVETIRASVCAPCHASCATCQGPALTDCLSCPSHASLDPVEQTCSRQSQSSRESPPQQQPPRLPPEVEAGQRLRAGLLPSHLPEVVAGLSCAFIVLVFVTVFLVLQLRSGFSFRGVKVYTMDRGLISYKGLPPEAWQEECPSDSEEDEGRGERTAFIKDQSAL
- Assay Notes: furin cleavage Z-score vs untreated control; higher = more cleavage, active = 3.5 or more, inactive = 1 or less, 8 variable residues between constant flanks
- Experimental Context: 30 min
This is one part of the list. How many sequences the whole screen found active is unknown.
Hello, when you answer, please use one of the following outcomes: active, inactive

CARRKKARGPAGNASASA [FS-2776]	inactive
CAGERCDLEDAGNASASA [HC485]	inactive
CARRKRSVAQAGNASASA [FS-1919]	active
CAVFPDLGVRAGNASASA [HC1451]	inactive
CAIKLGALTGAGNASASA [HC630]	inactive

// query Look up the recorded call for CARHRRHHHQAGNASASA [FS-2337] in this test.
// result active

// query So what was the verdict on CARMRRHHHHAGNASASA [FS-2158] in this test?
// result active
